All figures here come from the supplement of paper PMC6755084.

Below is a list of entries, each paired with its recorded fraction ligated value.
- Tested on: F1*sub RNA substrate (template-directed ligation)
- Test Details: fraction ligated after 30 min (ligated reads / total reads); higher = more ligase activity; sequences stand for … in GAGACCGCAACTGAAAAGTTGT…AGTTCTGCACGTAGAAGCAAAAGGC
- Conditions: 42 °C
API doc: respond with a numeric literal and nothing else, no unit.

Answered examples (3):
[[record]]
monomer_sequence = "TACACTTGTCGTAAGCACTTTGGATGGGTTA [3d690]"
endpoint_value = 0.0198

[[record]]
monomer_sequence = "TATCACGTCGTAAGACACTTTGGATGGGTTA [3d1309]"
endpoint_value = 0.734

[[record]]
monomer_sequence = "TATCACTGTCGTAAGAATTTGGATGGGTTGA [3d1418]"
endpoint_value = 0.804


Let's switch to this sequence now.
Entry TACACTTGCGTAAGAACTTTGGATGGGTTGA [3d607] , fraction ligated reported as 0.015

###

Below is a list of entries, each paired with its recorded fraction ligated value.
- Tested on: F1*sub RNA substrate (template-directed ligation)
- Test Details: fraction ligated after 30 min (ligated reads / total reads); higher = more ligase activity; sequences stand for … in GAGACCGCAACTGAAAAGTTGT…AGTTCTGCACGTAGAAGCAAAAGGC
- Conditions: 42 °C
API doc: respond with a numeric literal and nothing else, no unit.

Answered examples (5):
[[record]]
monomer_sequence = "TATCCTTGTCGTAAACACTTTGGAGGGTTGA [3d1061]"
tested_target = "F1*sub RNA substrate (template-directed ligation)"
endpoint_value = 0.0122

[[record]]
monomer_sequence = "TATACTGTCGTAAGACACTTTGGATGGGTTG [3d795]"
tested_target = "F1*sub RNA substrate (template-directed ligation)"
endpoint_value = 0.683

[[record]]
monomer_sequence = "TATCACTTGTCTGACACTTTGGATGGGTTGA [3d1823]"
tested_target = "F1*sub RNA substrate (template-directed ligation)"
endpoint_value = 0.77

[[record]]
monomer_sequence = "TTCATTGTCGTAAGACACTTGGATGGGTTGA [3d329]"
tested_target = "F1*sub RNA substrate (template-directed ligation)"
endpoint_value = 0.453

[[record]]
monomer_sequence = "TTCATTGTCGTAGACACTTTGGATGGGTTGA [3d323]"
tested_target = "F1*sub RNA substrate (template-directed ligation)"
endpoint_value = 0.271


Entry TTCACTTTCGTAAGACACTTTGGATGGGTTG [3d370] , fraction ligated reported as 0.184

Entry TATCACTTGTCGTAAACACTTGGATGGGTTGA [2d237] , fraction ligated reported as 0.786

Entry TATATTGTCGTAAGACACTTTGGTGGGTTGA [3d772] , fraction ligated reported as 0.0169

Entry ATCACTTGTCGTAAGCCTTTGGATGGGTTGA [3d222] , fraction ligated reported as 0.744

Entry TACACTTGTCGTAAGCACTTTGATGGGTTGA [3d686] , fraction ligated reported as 0.0278

Entry TTACTTGTCGTAAGACACTTTGGATGGGTTGA [2d25] , fraction ligated reported as 0.419

Entry ATCACTTGTCGTAAGACCTTTGATGGGTTGA [3d240] , fraction ligated reported as 0.311

###

- Tested on: F1*sub RNA substrate (template-directed ligation)
- Test Details: fraction ligated after 30 min (ligated reads / total reads); higher = more ligase activity; sequences stand for … in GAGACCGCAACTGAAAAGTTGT…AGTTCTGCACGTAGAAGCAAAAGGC
- Conditions: 42 °C
Below is a list of entries, each paired with its recorded fraction ligated value.
API doc: respond with a numeric literal and nothing else, no unit.

[[record]]
monomer_sequence = "TTCACTGTCGTAAGACACTTTGATGGGTTGA [3d349]"
tested_target = "F1*sub RNA substrate (template-directed ligation)"
endpoint_value = 0.653

[[record]]
monomer_sequence = "TTCACTTGTCTAAGACCTTTGGATGGGTTGA [3d407]"
tested_target = "F1*sub RNA substrate (template-directed ligation)"
endpoint_value = 0.578

[[record]]
monomer_sequence = "TATACTTGTCGTAAGACCTTGGATGGGTTGA [3d911]"
tested_target = "F1*sub RNA substrate (template-directed ligation)"
endpoint_value = 0.777


Entry TATCCTTGTCGTAAGACACTTTGGTGGGTTA [3d1112] , fraction ligated reported as 0.0152

Entry TATACTTTCGTAAGACACTTTGGAGGGTTGA [3d808] , fraction ligated reported as 0.00847

###

- System: F1*sub RNA substrate (template-directed ligation)
- Test Details: fraction ligated after 30 min (ligated reads / total reads); higher = more ligase activity; sequences stand for … in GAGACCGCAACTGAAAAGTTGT…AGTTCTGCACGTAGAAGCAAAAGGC
- Conditions: 42 °C
Quantity Kind: fraction ligated
API doc: respond with a numeric literal and nothing else, no unit.

[[record]]
monomer_sequence = "TACACTTGTCGTAAGACACTTTGATGGTTGA [3d724]"
tested_target = "F1*sub RNA substrate (template-directed ligation)"
endpoint_value = 0.0498

[[record]]
monomer_sequence = "TATCCTTGTCGTAAACACTTGGATGGGTTGA [3d1058]"
tested_target = "F1*sub RNA substrate (template-directed ligation)"
endpoint_value = 0.721

[[record]]
monomer_sequence = "TATCATTTCGTAAGACACTTTGGATGGGTTA [3d1154]"
tested_target = "F1*sub RNA substrate (template-directed ligation)"
endpoint_value = 0.313

[[record]]
monomer_sequence = "TATCACTGCGTAAGAACTTTGGATGGGTTGA [3d1333]"
tested_target = "F1*sub RNA substrate (template-directed ligation)"
endpoint_value = 0.842

[[record]]
monomer_sequence = "TATACTTTGTAAGACACTTTGGATGGGTTGA [3d796]"
tested_target = "F1*sub RNA substrate (template-directed ligation)"
endpoint_value = 0.74


Entry TATACTGTCGTAAGACACTTTGGATGGGTTA [3d794] , fraction ligated reported as 0.0511

Entry TATCCTTGTCGTAAGCCTTTGGATGGGTTGA [3d1066] , fraction ligated reported as 0.75

###

- Test system: F1*sub RNA substrate (template-directed ligation)
- Test Details: fraction ligated after 30 min (ligated reads / total reads); higher = more ligase activity; sequences stand for … in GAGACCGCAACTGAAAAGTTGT…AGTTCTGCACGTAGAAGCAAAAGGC
- Conditions: 42 °C
Below is a list of entries, each paired with its recorded fraction ligated value.
API doc: respond with a numeric literal and nothing else, no unit.

Answered examples (4):
[[record]]
monomer_sequence = "ATCCTGTCGTAAGACACTTTGGATGGGTTGA [3d67]"
quantity_kind = "fraction ligated"
endpoint_value = 0.683

[[record]]
monomer_sequence = "TATACTGTCGTAAGAACTTTGGATGGGTTGA [3d786]"
quantity_kind = "fraction ligated"
endpoint_value = 0.809

[[record]]
monomer_sequence = "TTCACTTGTCGTAAGACACTTTGGATGGTTGA [2d44]"
quantity_kind = "fraction ligated"
endpoint_value = 0.739

[[record]]
monomer_sequence = "ATCACTTGTCTAAGACCTTTGGATGGGTTGA [3d176]"
quantity_kind = "fraction ligated"
endpoint_value = 0.717


Let's switch to this sequence now.
Reading of fraction ligated for TATCACTTTCGTAAGACACTTTATGGGTTGA [3d1568] with F1*sub RNA substrate (template-directed ligation): 0.0429

###

Below is a list of entries, each paired with its recorded fraction ligated value.
- Test system: F1*sub RNA substrate (template-directed ligation)
- Test Details: fraction ligated after 30 min (ligated reads / total reads); higher = more ligase activity; sequences stand for … in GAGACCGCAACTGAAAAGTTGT…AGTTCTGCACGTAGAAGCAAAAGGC
- Conditions: 42 °C
API doc: respond with a numeric literal and nothing else, no unit.

Answered examples (5):
[[record]]
monomer_sequence = "TATCCTGCGTAAGACACTTTGGATGGGTTGA [3d951]"
tested_target = "F1*sub RNA substrate (template-directed ligation)"
quantity_kind = "fraction ligated"
endpoint_value = 0.786

[[record]]
monomer_sequence = "ATCATGTCGTAAGACACTTTGGATGGGTTGA [3d86]"
tested_target = "F1*sub RNA substrate (template-directed ligation)"
quantity_kind = "fraction ligated"
endpoint_value = 0.722

[[record]]
monomer_sequence = "TAACTGTCGTAAGACACTTTGGATGGGTTGA [3d509]"
tested_target = "F1*sub RNA substrate (template-directed ligation)"
quantity_kind = "fraction ligated"
endpoint_value = 0.175

[[record]]
monomer_sequence = "TATCATTGTCGTAAGCACTTTGGATGGGTTG [3d1246]"
tested_target = "F1*sub RNA substrate (template-directed ligation)"
quantity_kind = "fraction ligated"
endpoint_value = 0.767

[[record]]
monomer_sequence = "TATCCTTTCGAAGACACTTTGGATGGGTTGA [3d970]"
tested_target = "F1*sub RNA substrate (template-directed ligation)"
quantity_kind = "fraction ligated"
endpoint_value = 0.8


Entry TATCATTGCGTAAGACACTTTGGATGGGTTG [3d1171] , fraction ligated reported as 0.815

Entry TACACTTTGTAAGACACTTTGGATGGGTTGA [3d585] , fraction ligated reported as 0.0938

Entry TATCACTTGTGTAAGACCTTTGGATGGTTGA [3d1776] , fraction ligated reported as 0.204

Entry TATCACTTGTCGTAAGACATTTGGTGGGTTA [3d2222] , fraction ligated reported as 0.00331

Entry TATCCTTTCGTAAGACACTTTGGAGGGTTGA [3d980] , fraction ligated reported as 0.0203

Entry TACACTTGTCGTAAGACACTTTGGATGGGTTA [2d67] , fraction ligated reported as 0.274

Entry TATCACTTTCGTAGACACTTTGGATGGGTTA [3d1517] , fraction ligated reported as 0.631
